The measured values listed here are drawn from the supplement of paper PMC8728848.

Can you tell me glycan array binding signal (z-score) for the items I'm about to list?
- subjectOfTest: Gal(b1-3)GalNAc(a1-3)[Fuc(a1-2)]Gal(b1-4)Glc
- assayRemarks: glycan array binding signal (z-score within array); higher = stronger binding
- conditionSet: glycan notation: IUPAC condensed, linker removed
Shown is part of a subset that was picked to be rich in the strongest signals.
Give bare numbers.

CPA (Cicer arietinum) (protein) MAFSYLNLVLVTLTTLFFLQTTKVKSQKSVSFHITNFTISRPSITLQGTAEFLPNVLLLNDIEHPVFVVGRALYSKPITLWNNKTGKVASFVTSFTFDVQDLKKTVPGHGLVFFLAPSGSEIPFSSDGGNLGVVDGKNAFNRFVGVEFDNFVNSWDPKYSHVGINVNSLISTKTVKWNRVSGELVKVSIVYDSVSTTLTVIVTYKNGQISILSQLVDLKAVLPDTVNIGFSASTTLVSPRQLHNIHSWSFTSTFET = -0.568

With those in mind, consider the next binder.
Challenge: Which glycan array binding signal (z-score) is reported for this binder? ABA (Agaricus bisporus), Q00022 (protein) MTYTISIRVYQTTPKGFFRPVERTNWKYANGGTWDEVRGEYVLTMGGSGTSGSLRFVSSDTDESFVATFGVHNYKRWCDIVTNLTNEQTALVINQEYYGVPIRDQARENQLTSYNVANAKGRRFAIEYTVTEGDNLKANLIIG
Response given: 3.56
